# Species on record: Rattus norvegicus
# method.notes: Open TG-GATES - Regimen: Daily Repeat
# Assay type: toxicity, organism-based, Sprague-Dawley
# Design: regimen Daily Repeat, gender Male, age 6 weeks
# condition.summary: in vivo, po, 100 mg/kg, […], tissue Plasma, route gavage, dose level Low, time 28 day
quantity: Na (meq/L)
Write the answer as a number in meq/L, unit excluded.

**Q:** Which Na is listed for O=C(O)c1cccnc1 ?
**A:** 143.4

**Q:** What does the data say about its Na? Entry: CC(C)(S)[C@@H](N)C(=O)O
**A:** 144

**Q:** Consider the compound O=C(N[C@H](CO)[C@H](O)c1ccc([N+](=O)[O-])cc1)C(Cl)Cl and give its measured Na.
**A:** 144.2

**Q:** Given the entry CCN1CCCC1CNC(=O)c1cc(S(N)(=O)=O)ccc1OC (centres undefined) [SULPIRIDE] , report its measured Na.
**A:** 142.6
